Measured melting point values are reported for all entries that follow.

In the examples that follow, each entry is paired with its recorded melting point.
| compound | quantity-name | readout-value |
| --- | --- | --- |
| COc1ccc(-c2c(Cl)c(CN3C(=O)CCC3=O)nc3sc4c(c23)CCN(Cc2ccccc2)C4)cc1OC | melting point | 128 to 130 °C |
| Nc1cc(C(=O)OCCN2CCCCC2)c2oc(-c3ccccc3)cc2c1 | melting point | 126 to 128 °C |
| COC(COC(C)=O)C1(O)CCC2C3CCC4=CC(=O)CCC4(C)C3CCC21C (stereo not given) | melting point | 145 to 147 °C |
| COc1cc(OC)cc(C(=O)c2ccc(OC(F)F)c(OC(F)F)c2)c1 | melting point | 60 to 62 °C |

Lab note: next compound to report on.
Which melting point is listed for `Clc1ccc(-n2nc3c(c2Br)CSCC3)cc1` ?
144 to 145 °C

* * *

Measured melting point values are reported for all entries that follow.

In the examples that follow, each entry is paired with its recorded melting point.
| compound | melting point |
| --- | --- |
| COC(=O)C1=C(C)NC(C)=C(C(=O)OCCCCCCN2C(=O)c3ccccc3C2=O)C1c1cccc([N+](=O)[O-])c1 (centres undefined) | 134 to 140 °C |
| CNC(=O)[C@@H]1CCCC[C@@H]1Nc1nc(Cl)ncc1Cl (relative stereo) | 108 °C |
| CC(C)Oc1cc(Oc2ccc(C(F)(F)F)cn2)ccc1CCCOc1cc(CCC(=O)O)n(C)n1 | 128 to 130 °C |
| COc1nc2c(c(OC)n1)C(c1cc(OC)c(OC)c(OC)c1)C1=C(COC1=O)N2 (centres undefined) | 299 to 300 °C |
| CC1(CCOc2ccc(/C=C/C(=O)O)c(Oc3ncc(C(F)(F)F)cc3Cl)c2)OCCO1 | 144 to 146 °C |
| O=C(O)C(NS(=O)(=O)c1ccc(Cl)cc1)C1CCCCC1 (centres undefined) | 120 to 128 °C |

Which melting point is listed for `CC(C)(C)Sc1c(CC(C)(C)C(=O)O)n(Cc2ccc(Cl)cc2)c2ccc(Oc3ccccn3)cc12` ?
206 to 207 °C

Likewise for O=C(Oc1ccccc1)N1CCC2(CC1)SC(c1ccccc1)c1ccc(F)cc12 (centres undefined) ?
156 to 158 °C

* * *

Measured melting point values are reported for all entries that follow.

In the examples that follow, each entry is paired with its recorded melting point.
| compound | melting point |
| --- | --- |
| CC(C)(C)C(O)(Cn1cncn1)C1CCC1 (centres undefined) | 94 to 99.5 °C |
| O=C(CCS)N[C@@H](Cc1c[nH]cn1)C(=O)O | 219 °C |
| CCOc1ccc(-c2cc(C(F)(F)F)n3cnc(-c4ccncc4)c3n2)cc1C(F)(F)F | 244 °C |
| O=c1oc(-c2ccccc2)cc(O)c1C(SC1CCCC1)C1CCCC1 (centres undefined) | 139 to 142 °C |
| COc1ccc(N2C(=O)Cc3ccccc32)cc1Cl | 165 to 167 °C |
| COc1ccc(/C=N/Nc2ccccn2)cc1OC1CCCC1 | 142 to 143 °C |

Which melting point is listed for `c1ccc(Sc2sc(-c3ccccc3)cc2-c2ccccc2)cc1` ?
96 to 97 °C

Likewise for `Cc1cccc(C)c1NS(=O)(=O)c1cc(S(=O)(=O)Nc2c(C)cccc2C)c2cc(O)ccc2c1` ?
162 to 164 °C

Likewise for `COc1cccc(C=C2SC(=S)N(CC(=O)O)C2=O)c1-c1cc2c(cc1C)C(C)(C)CCC2(C)C` ?
149 °C

Likewise for `CC(=O)n1cc(C#N)c(-c2cccc(Cl)c2Cl)c1` ?
136 to 137 °C

Likewise for `O=C(O)CC1c2ccccc2C=Cc2ccccc21` ?
167 to 168 °C

Likewise for CCOC(=O)CC1(CC)OCCc2c1[nH]c1ccccc21 (centres undefined) ?
< 80 °C

Likewise for CCC(=O)Nc1cccc2c1C1(COc3cc4c(cc31)OCCO4)C(=O)N2C (centres undefined) ?
224 to 226 °C

* * *

quantity-name: melting point

Which melting point is listed for COc1ccc(N(C(=O)CN2C(=O)C(Cc3nn(Cc4ccccc4)c4c3CCCC4)C(=O)N(c3ccccc3)c3ccccc32)C(C)C)cc1 (configuration not stated) ?
173 to 176 °C

Likewise for Nc1nc(O)c2c(n1)NCC(CN(C=O)Cc1ccc(C(=O)N[C@@H](CCC(=O)O)C(=O)O)cc1)C2 (some centres not stated) ?
178 °C

Likewise for `CC(C)(CO)c1ccc(C(=O)Nc2cn3cc(-c4ccsc4)ccc3n2)cc1` ?
250 to 252 °C

Likewise for `CCOC(=O)Cn1cc(CC(=O)O)c2ccccc21` ?
138 °C

Likewise for `CN1CC[C@@H](c2c(O)cc(O)c3c(=O)cc(-c4cccnc4Cl)oc23)[C@@H]1CO` ?
125 to 127 °C

* * *

Measured melting point values are reported for all entries that follow.

In the examples that follow, each entry is paired with its recorded melting point.
| compound | quantity-name | readout-value |
| --- | --- | --- |
| Cc1ccc(Cl)cc1N1CCCN(C)C1=S | melting point | 143 to 145 °C |
| CCCCCCCc1ccc(C(=O)CCCCC(=O)O)cc1 | melting point | 80 to 81 °C |
| COc1ccc(C(=O)NCCc2ccccc2)cc1OC | melting point | 123 to 124 °C |
| O=C(N[C@H](CN1CCC(OC2c3ccccc3CCc3ccccc32)CC1)C(=O)O)OCc1ccccc1 | melting point | 128 to 130 °C |

Lab note: next compound to report on.
Which melting point is listed for CC(CCNc1cccc(-c2ccnc3c(C(=O)c4cccs4)cnn23)c1)c1ccccc1 (stereo not given) ?
64 to 68 °C

* * *

quantity-name: melting point

In the examples that follow, each entry is paired with its recorded melting point.
| molecule | readout-value |
| --- | --- |
| Cc1cc(C(=O)Nc2ccc(C(=O)O)cc2)on1 | > 300 °C |
| Cc1cc(=O)[nH]c2c1C(=O)CCC2 | 96 to 97 °C |
| Cc1c(NC(=O)c2ccc(OC[C@@H]3CCCO3)cc2)ccc2cc(CNCC(C)(C)C)[nH]c12 | 168 °C |
| S=C1CN=C(c2ccccn2)c2cc(Cl)ccc2N1 | 217 to 218 °C |
| Cc1cccc(COc2ccc3c(c2)[C@@H](O)[C@H](Cc2cccnc2)CO3)n1 (relative stereo) | 66 to 68 °C |
| O=C1c2cc3nn[nH]c(=O)c3cc2OC2CCCN12 (stereo unspecified) | 253 °C |
| CC(=O)c1cc(N2CCOCC2)ccc1NC(=O)c1ccc(OCc2ccccc2)cc1 | 172 to 175 °C |
| N#CCC(=O)Nc1ccc(-c2ncn(-c3ccc(OC(F)(F)F)cc3)n2)cc1 | 250 to 252 °C |
| OCCc1ccc2sccc2c1 | 56 to 57 °C |
| CCOC(=O)c1ccc(-c2ccc(-c3cccc(OCOC)c3)c(-c3ccc4c(c3)C(C)(C)CCC4(C)C)c2)cc1 | 103 to 104 °C |

Which melting point is listed for `Cn1c(C(=O)N[C@H]2CCCC[C@H]2C(=O)N[C@@H](CCC(N)=O)C(N)=O)cc2ccccc21` ?
234 to 235 °C

Likewise for N#CC1CN1C(=O)NC(=O)c1ccc(Cl)cc1 (stereo unspecified) ?
160 to 162 °C

Likewise for `CC(C)(C)CNc1nc(Cl)cc(Cl)n1` ?
63 to 66 °C

Likewise for `COc1ccc(OCCCN(Cc2cccc(O)c2)c2nc3ccccc3o2)cc1` ?
104 °C

Likewise for `CC(C)NS(=O)(=O)c1ccc(N2CCC(N3C(=O)OCc4ccccc43)CC2)c([N+](=O)[O-])c1` ?
168 °C

* * *

Measured melting point values are reported for all entries that follow.

Which melting point is listed for `NCC1CCN(c2nccc(C(N)=O)n2)CC1` ?
144 to 148 °C

Likewise for `Brc1ccc(-c2coc3ccc(-c4ccccc4)cc23)cc1` ?
90 to 92 °C

Likewise for `CON(c1ccc([N+](=O)[O-])cc1Cl)S(=O)(=O)c1cc(Cl)ccc1Cl` ?
132 to 133 °C

Likewise for `O=C(O)c1cn(-c2cccs2)c2cc(F)c(F)cc2c1=O` ?
245 to 246 °C

Likewise for COc1ccc(C2(O)c3c(C)c(NC(=O)CC(C)(C)C)c(C)c(C)c3OC2(C)C)cc1 (stereo not given) ?
98 to 99 °C

Likewise for `N=C(NO)c1nc(-c2ccc(Cl)cc2)cc(C(F)(F)F)n1` ?
243 °C

Likewise for `Cc1nc(C#N)c2n1-c1ccc(Cl)cc1C(c1ccccc1)=NC2` ?
228 to 229 °C

Likewise for `Cc1oc2c(-n3c(=O)cc(C(F)(F)F)n(C)c3=O)ccc(Cl)c2c1[N+](=O)[O-]` ?
174 to 175 °C

Likewise for `COc1cc(O)c(C(=O)c2ccccc2F)c(Cl)c1` ?
85 to 90 °C

Likewise for `CC1(C)COC(=O)N1Br` ?
118 to 120 °C
